Assay: protein stability index of a GFP-peptide fusion (yeast GPS) (PSI 1-4); higher = more stable; sorted into four equal gates, so the index is relative within each strain
Measurement context: ubr1∆
Readout type: protein stability index
API note: the answer field is a bare number with no unit suffix.

Solved entries (count: 8):
Sequence data	protein stability index
LETEQLSSELDSNKTLL [SMC2]	3.31
MAQRVTFRRRNPYNTRS [RPL34A]	1.77
ASSSPSSTDFSTCIVSL [ECM29]	1.84
ADITDGNNTELTKTTVN [YCG1]	3.09
TILSSKLSNIWMQRQLI [SRB2]	2.82
MDQDNNNHNDSNRLHPP [GRR1]	2.9
YDLVDNKGAKAEDVALN [NAS6]	3.07
HISKIIGLDTQQVEGKL [RPN6]	2.86

Per the records, this sequence ( KRVKSYMDKAKQYDNRI [LRP1] ) has protein stability index equal to 2.83

----------
Assay: protein stability index of a GFP-peptide fusion (yeast GPS) (PSI 1-4); higher = more stable; sorted into four equal gates, so the index is relative within each strain
Measurement context: pdr5∆
Items are presented alongside their recorded protein stability index.
API note: the answer field is a bare number with no unit suffix.

Sequence data	protein stability index
YSNEPFNTNFDDEFGDL [SNF6]	3
MNVTPLDELQWKSPEWI [MED6]	3.14
NDNNLKKLESQESLVKL [RPN5]	2.96
PRFNRDNKVSPAAAAKK [RPS26B]	2.5
VLPKIFNSVKSFDEWFN [SNF2]	2.43
MYILGMCVSKGNASLKY [YCG1]	2.42

Per the records, this sequence ( INNLPPEKEASSATIVL [YCG1] ) has protein stability index equal to 2.88

Per the records, this sequence ( YYYNTKIYKLENGERKL [YMR129W/POM152] ) has protein stability index equal to 3.26

Per the records, this sequence ( KKKQQGAKQTQGGAMNK [SRP72] ) has protein stability index equal to 2.54

Per the records, this sequence ( IGSNGSGKSNFFAAIRF [SMC3] ) has protein stability index equal to 3.07

Per the records, this sequence ( TAKLQMRRFILGTTEGD [RPN14] ) has protein stability index equal to 1.45

Per the records, this sequence ( GTENTERPPLLPILPIQ [YOR098C/NUP1] ) has protein stability index equal to 3.08

----------
Assay: protein stability index of a GFP-peptide fusion (yeast GPS) (PSI 1-4); higher = more stable; sorted into four equal gates, so the index is relative within each strain
Measurement context: doa10∆
Items are presented alongside their recorded protein stability index.
API note: the answer field is a bare number with no unit suffix.

Per the records, this sequence ( YMQRTVEEAHDFNMKLA [RPB2] ) has protein stability index equal to 3.09

Per the records, this sequence ( DSSLQPEYFESPLQSSK [YMR129W/POM152] ) has protein stability index equal to 3.19

Per the records, this sequence ( LRELDVELIESKINELS [SMC4] ) has protein stability index equal to 3.37

----------
Items are presented alongside their recorded protein stability index.
Assay: protein stability index of a GFP-peptide fusion (yeast GPS) (PSI 1-4); higher = more stable; sorted into four equal gates, so the index is relative within each strain
Measurement context: pdr5∆

Solved entries (count: 3):
Sequence data	protein stability index
QTKSNGTAGGNTFGSSS [YJL041W/NSP1]	2.84
GNNTELTKTTVNISAVD [YCG1]	3.24
TQKDSARVSPRNNVANK [YAR002W/NUP60]	3.52

Per the records, this sequence ( RVRTDDSVLLNRGNKKR [YML031W/NDC1] ) has protein stability index equal to 3.4

Per the records, this sequence ( IPPDQQRLIFAGKQLED [RPS31] ) has protein stability index equal to 2.73

Per the records, this sequence ( QFQKARNNVMLLIATNL [SRB8] ) has protein stability index equal to 1.81

Per the records, this sequence ( GKAKGDIPGVRFKVVKV [RPS23A] ) has protein stability index equal to 3.42

Per the records, this sequence ( EVAVPDRVAKVLTYPEK [RPO31] ) has protein stability index equal to 3.06

Per the records, this sequence ( IAARRTGLLRGSQKTQD [RPL2A] ) has protein stability index equal to 2.73

Per the records, this sequence ( QIRSADEPMTTFYKCVN [RPC11] ) has protein stability index equal to 2.54
